- subject.of.test: human M4 receptor (Homo sapiens, UniProt P08173)
- Construct: expressed in transfected cells; host or cells: CHO cells
- Sequence (P08173 whole entry): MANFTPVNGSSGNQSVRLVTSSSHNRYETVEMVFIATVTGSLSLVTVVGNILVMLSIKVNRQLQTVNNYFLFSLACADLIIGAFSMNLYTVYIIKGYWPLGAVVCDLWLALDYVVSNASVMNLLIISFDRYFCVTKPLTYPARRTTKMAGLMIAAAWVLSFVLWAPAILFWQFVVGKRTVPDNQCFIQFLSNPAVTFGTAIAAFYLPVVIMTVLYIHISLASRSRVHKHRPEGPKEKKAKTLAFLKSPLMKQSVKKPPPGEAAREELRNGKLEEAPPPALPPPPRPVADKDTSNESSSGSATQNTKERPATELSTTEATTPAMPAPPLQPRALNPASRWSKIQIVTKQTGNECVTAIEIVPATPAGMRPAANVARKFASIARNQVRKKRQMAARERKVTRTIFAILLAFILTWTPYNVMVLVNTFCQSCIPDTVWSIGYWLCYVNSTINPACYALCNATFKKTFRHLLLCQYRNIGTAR
- experimental.protocol: Radioligand ([3H]N-methylscopolamine) binding assay, membranes from CHO cells expressing human M4 receptor
- condition.description: Ki against human M4 receptor; membranes from CHO cells; tritiated N-methylscopolamine 1.5 nM; read-out: K
observable: Ki

Observe how each entry below is paired with its result.
>>> recorded_result("C[C@@H]1CN(c2ccc(C(F)(F)F)cc2)C[C@H](C)N1C(=O)OC1CC2(C1)CN(Cc1ccccc1)C2")
"< 10 nM"
>>> recorded_result("C[C@@H]1CN(c2nc3cc(C(F)(F)F)cnc3s2)C[C@@H](C)N1C(=O)OC1CC2(C1)CN(Cc1ccccc1)C2")
"10 to 100 nM"
>>> recorded_result("C[C@@H]1CN(c2ncc(C(F)(F)F)cn2)CCN1C(=O)OC1CC2(C1)CN(Cc1ccccc1)C2")
"< 10 nM"

I have this compound here, "Cc1nc(C#N)cnc1N1C[C@@H](C)N(C(=O)OC2CC3(C2)CN(Cc2ccccc2)C3)[C@@H](C)C1" , and I need its recorded Ki.
100 to 1000 nM

I have this compound here, "C[C@@H]1CN(c2nc3ccc(C(F)(F)F)cc3s2)[C@@H](C)CN1C(=O)OC1CC2(C1)CN(Cc1ccc(F)cc1)C2" , and I need its recorded Ki.
< 10 nM

I have this compound here, "C[C@@H]1CN(c2ncc(C#N)cn2)C[C@H](C)N1C(=O)OC1CC2(C1)CN(Cc1ccc(F)cc1)C2" , and I need its recorded Ki.
10 to 100 nM

I have this compound here, "N#Cc1cnc(N2CC3CC(C2)N3C(=O)OC2CC3(C2)CN(Cc2ccccc2)C3)cn1" , and I need its recorded Ki.
100 to 1000 nM
